tested on: blood-brain barrier; experiment: in situ rat brain perfusion, pH-dependent; details: pH 7.4; new pH-CRE method
recorded_metric: PcS (pH-CRE)

Worked examples, 2 compounds total:
>>> observed_result("CN(C)CCC=C1c2ccccc2CCc2ccccc21")
2997
>>> observed_result("CNCCCC12CCC(c3ccccc31)c1ccccc12")
591

I. CNCC[C@@H](Oc1ccccc1C)c1ccccc1
II. CN(C)CCCN1c2ccccc2CCc2ccccc21
**Q:** Pick the one with the larger PcS (pH-CRE): I vs II Respond using the label that marks the chosen record.
**A:** II
(II: 1416, I: 805)

###

system: blood-brain barrier; assay: in situ rat brain perfusion, pH-dependent; details: pH 8.5; new pH-CRE method
recorded_metric: PcS (pH-CRE)

>>> observed_result("CNCC[C@@H](Oc1ccccc1C)c1ccccc1 [Atomoxetine]")
9295
>>> observed_result("CNCCCC12CCC(c3ccccc31)c1ccccc12 [Maprotiline]")
7234

###

assay: pKa determination at 37°C; type: physicochemical
recorded_metric: pKa

>>> observed_result("CNCC[C@@H](Oc1ccccc1C)c1ccccc1")
9.5
>>> observed_result("CN(C)CCC=C1c2ccccc2CCc2ccccc21")
8.92
>>> observed_result("CNCCCC12CCC(c3ccccc31)c1ccccc12")
10
>>> observed_result("CN(C)CCCN1c2ccccc2CCc2ccccc21")
9.23

###

tested on: blood-brain barrier; assay: in situ rat brain perfusion, pH-dependent; conditions: weighted nonlinear regression, Eq. 4
recorded_metric: Fpf (cerebrovascular flow velocity refined from the compound's Kin-pH data) (mL.g^−1.s^−1)

Worked examples, 2 compounds total:
>>> observed_result("CNCCCC12CCC(c3ccccc31)c1ccccc12")
0.047
>>> observed_result("CNCC[C@@H](Oc1ccccc1C)c1ccccc1")
0.031

a. CN(C)CCCN1c2ccccc2CCc2ccccc21
b. COc1ccc2c(c1)c(CC(=O)O)c(C)n2C(=O)c1ccc(Cl)cc1
c. CN(C)CCC=C1c2ccccc2CCc2ccccc21
**Q:** Sort by Fpf (cerebrovascular flow velocity refined from the compound's Kin-pH data), descending. The labels, placed in the requested order, form the answer.
**A:** b, c, a
(b: 0.081 mL.g^−1.s^−1, c: 0.051 mL.g^−1.s^−1, a: 0.032 mL.g^−1.s^−1)

Origin of measurements: paper PMC3076090
